- Target Or Test System: Receptor-type tyrosine-protein kinase FLT3 (Homo sapiens);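 further: mean inhibition value from the GSK PKIS kinase screening set, with the assay run by Nanosyn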
- Stated Conditions: at 0.1 µM
As shown below, each of these compounds has a reported inhibition value.
Experimental Readout: inhibition (%)

INSERT INTO measurements (mol, experimental_readout, value_units, reported_measurement) VALUES
  ('C[C@@H](Oc1cc(-n2cnc3ccc(OCC4CCN(C)CC4)cc32)sc1C(N)=O)c1ccccc1C(F)(F)F', 'inhibition', '%', 1.99),
  ('Cc1ccc2c(-c3ccnc(Nc4ccc5c(c4)OCCO5)n3)c(-c3ccc(C(F)(F)F)cc3)nn2n1', 'inhibition', '%', 2.13),
  ('Nc1nccc(-c2c(-c3ccc(F)cc3)nn3cc(C(F)(F)F)ccc23)n1', 'inhibition', '%', 2.41),
  ('N#Cc1c(NC(=O)c2ccccc2F)sc2c1CCCC2', 'inhibition', '%', 0.49),
  ('CS(=O)(=O)CCNCc1nc(-c2ccc3ncnc(Nc4ccc(OCc5cccc(C(F)(F)F)c5)cc4)c3c2)cs1', 'inhibition', '%', 7.87),
  ('Nc1nccc(C#Cc2cncnc2Nc2ccc(OCc3cccc(F)c3)c(Cl)c2)n1', 'inhibition', '%', 0.89),
  ('O=C(Nc1ccc(Oc2ccc3[nH]c(NC(=O)c4ccco4)nc3c2)cc1)Nc1cc(C(F)(F)F)ccc1F', 'inhibition', '%', 15),
  ('NS(=O)(=O)c1ccc(-c2cc3ccncc3cc2OCc2ccccc2)cc1', 'inhibition', '%', 2.19),
  ('CCS(=O)(=O)c1ccc(OC)c(Nc2ncc(-c3cccc(OC)c3)o2)c1', 'inhibition', '%', 16.3);

----------
- Target Or Test System: Ribosomal protein S6 kinase alpha-6 (Homo sapiens) (UniProt Q9UK32);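 further: reported value is the mean inhibition of RSK4, from the GSK PKIS kinase inhibitor screen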
- Sequence (Q9UK32 whole entry): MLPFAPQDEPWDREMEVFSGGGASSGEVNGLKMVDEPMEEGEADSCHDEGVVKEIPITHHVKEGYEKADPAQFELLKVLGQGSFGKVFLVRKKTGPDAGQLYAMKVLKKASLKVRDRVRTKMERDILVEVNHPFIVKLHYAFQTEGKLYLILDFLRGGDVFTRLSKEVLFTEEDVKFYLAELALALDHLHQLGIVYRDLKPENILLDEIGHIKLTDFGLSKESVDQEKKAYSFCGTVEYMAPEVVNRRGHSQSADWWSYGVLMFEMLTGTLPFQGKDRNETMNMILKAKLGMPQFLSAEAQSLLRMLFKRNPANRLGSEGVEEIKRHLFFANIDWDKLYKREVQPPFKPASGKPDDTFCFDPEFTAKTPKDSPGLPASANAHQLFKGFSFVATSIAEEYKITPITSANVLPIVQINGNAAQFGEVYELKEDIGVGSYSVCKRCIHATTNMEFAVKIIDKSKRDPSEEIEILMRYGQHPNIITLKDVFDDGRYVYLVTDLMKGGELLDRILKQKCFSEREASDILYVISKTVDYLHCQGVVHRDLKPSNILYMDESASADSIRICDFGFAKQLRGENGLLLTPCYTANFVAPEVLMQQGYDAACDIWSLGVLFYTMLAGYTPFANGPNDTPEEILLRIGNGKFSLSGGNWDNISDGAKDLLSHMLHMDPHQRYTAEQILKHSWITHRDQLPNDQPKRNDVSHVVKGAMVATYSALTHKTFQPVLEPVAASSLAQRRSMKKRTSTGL
- Stated Conditions: at 0.1 µM
Experimental Readout: inhibition

INSERT INTO results (compound, target_or_test_system, experimental_readout, reported_measurement) VALUES
  ('CN(c1ccc(NC(=O)Nc2ccc(OC(F)(F)F)cc2)cc1)c1ccnc(Nc2cccc(S(N)(=O)=O)c2)n1', 'Ribosomal protein S6 kinase alpha-6 (Homo sapiens) (UniProt Q9UK32)', 'inhibition', '-0.26%'),
  ('CC(C)c1ccc2c(c1)NC(=O)/C2=N/Nc1ccc(S(N)(=O)=O)cc1', 'Ribosomal protein S6 kinase alpha-6 (Homo sapiens) (UniProt Q9UK32)', 'inhibition', '-0.83%'),
  ('FC(F)(F)c1ccc(-c2nn3ncccc3c2-c2ccnc(Nc3ccc4c(c3)OCCO4)n2)cc1', 'Ribosomal protein S6 kinase alpha-6 (Homo sapiens) (UniProt Q9UK32)', 'inhibition', '-0.08%'),
  ('COc1cc(Nc2nccc(-c3cnn4ncccc34)n2)cc(OC)c1', 'Ribosomal protein S6 kinase alpha-6 (Homo sapiens) (UniProt Q9UK32)', 'inhibition', '0.97%'),
  ('c1ccc(Cc2nc3ccc(Nc4ncnc5ccccc45)cc3[nH]2)cc1', 'Ribosomal protein S6 kinase alpha-6 (Homo sapiens) (UniProt Q9UK32)', 'inhibition', '0.96%'),
  ('CC(C)c1ccc(Nc2nccc(-c3cnn4ncccc34)n2)cc1', 'Ribosomal protein S6 kinase alpha-6 (Homo sapiens) (UniProt Q9UK32)', 'inhibition', '-0.42%'),
  ('Cc1ccc2c(c1)/C(=N/Nc1ccc(S(N)(=O)=O)cc1)C(=O)N2', 'Ribosomal protein S6 kinase alpha-6 (Homo sapiens) (UniProt Q9UK32)', 'inhibition', '1.62%'),
  ('NS(=O)(=O)c1cccc(Nc2cc(-c3ccc(F)cc3)n[nH]2)c1', 'Ribosomal protein S6 kinase alpha-6 (Homo sapiens) (UniProt Q9UK32)', 'inhibition', '1.89%'),
  ('Cc1cc(O)cc(C)c1/C=C/c1cncc(C(=O)N(C)C)c1', 'Ribosomal protein S6 kinase alpha-6 (Homo sapiens) (UniProt Q9UK32)', 'inhibition', '1.12%'),
  ('O=C(Nc1ccc(Oc2ccc3[nH]c(NC(=O)c4ccco4)nc3c2)cc1)Nc1cc(C(F)(F)F)ccc1F', 'Ribosomal protein S6 kinase alpha-6 (Homo sapiens) (UniProt Q9UK32)', 'inhibition', '0.96%'),
  ('Cc1ccc2c(-c3ccnc(Nc4cccc(C(F)(F)F)c4)n3)c(-c3ccccc3)nn2n1', 'Ribosomal protein S6 kinase alpha-6 (Homo sapiens) (UniProt Q9UK32)', 'inhibition', '0.82%'),
  ('Cc1cc(Cl)cc2c1NC(=O)C2=NNc1ccc(S(N)(=O)=O)cc1', 'Ribosomal protein S6 kinase alpha-6 (Homo sapiens) (UniProt Q9UK32)', 'inhibition', '0.74%'),
  ('COc1ccc2ncnc(Nc3ccc(OCc4ccccc4)cc3)c2c1', 'Ribosomal protein S6 kinase alpha-6 (Homo sapiens) (UniProt Q9UK32)', 'inhibition', '1.03%'),
  ('COc1cc2ncnc(Nc3ccc(C)c(O)c3)c2cc1OC', 'Ribosomal protein S6 kinase alpha-6 (Homo sapiens) (UniProt Q9UK32)', 'inhibition', '2.48%'),
  ('CCCN1CCCC(c2ccc(Nc3nc(Nc4cc(F)ccc4C(N)=O)c4cc[nH]c4n3)c(OC)c2)C1 (configuration not stated)', 'Ribosomal protein S6 kinase alpha-6 (Homo sapiens) (UniProt Q9UK32)', 'inhibition', '19.7%'),
  ('O=S(=O)(CCOCc1ccc(-c2ccc3ncnc(Nc4ccc(OCc5cccc(F)c5)c(Cl)c4)c3c2)o1)c1ccccc1', 'Ribosomal protein S6 kinase alpha-6 (Homo sapiens) (UniProt Q9UK32)', 'inhibition', '-1.59%'),
  ('CN1CCN(C(=O)c2ccc(NC(=O)Nc3ccc(N(C)c4ccnc(Nc5ccc(CS(C)(=O)=O)cc5)n4)cc3)cc2)CC1', 'Ribosomal protein S6 kinase alpha-6 (Homo sapiens) (UniProt Q9UK32)', 'inhibition', '2.06%'),
  ('Cc1ccc(NC(=O)CC2CC2)cc1-c1ccc(C(=O)NCC2CC2)cc1', 'Ribosomal protein S6 kinase alpha-6 (Homo sapiens) (UniProt Q9UK32)', 'inhibition', '1.16%'),
  ('COC(=O)c1cncc(/C=C/c2c(C)cc(O)cc2C)c1', 'Ribosomal protein S6 kinase alpha-6 (Homo sapiens) (UniProt Q9UK32)', 'inhibition', '1.66%'),
  ('O=C1Nc2ccccc2/C1=C/Nc1ccc2[nH]c(=O)[nH]c2c1', 'Ribosomal protein S6 kinase alpha-6 (Homo sapiens) (UniProt Q9UK32)', 'inhibition', '2.19%'),
  ('Cc1ccc(O)cc1Nc1ccnc2ccc(S(C)(=O)=O)cc12', 'Ribosomal protein S6 kinase alpha-6 (Homo sapiens) (UniProt Q9UK32)', 'inhibition', '2.13%'),
  ('N#Cc1cccc(Nc2nccc(-c3cnn4ncccc34)n2)c1', 'Ribosomal protein S6 kinase alpha-6 (Homo sapiens) (UniProt Q9UK32)', 'inhibition', '1.51%'),
  ('COc1cc2ncn(-c3cc(OCc4ccccc4S(C)(=O)=O)c(C#N)s3)c2cc1OC', 'Ribosomal protein S6 kinase alpha-6 (Homo sapiens) (UniProt Q9UK32)', 'inhibition', '3.14%'),
  ('Cc1ccc(C(=O)NC2CC2)cc1-c1ccc2[nH]ncc2c1', 'Ribosomal protein S6 kinase alpha-6 (Homo sapiens) (UniProt Q9UK32)', 'inhibition', '-0.73%'),
  ('CN(C)CCCn1c(-c2nonc2N)nc2cnccc21', 'Ribosomal protein S6 kinase alpha-6 (Homo sapiens) (UniProt Q9UK32)', 'inhibition', '1.79%'),
  ('COc1cc2ncnc(Nc3ccc4c(cnn4Cc4ccccc4)c3)c2cc1OC', 'Ribosomal protein S6 kinase alpha-6 (Homo sapiens) (UniProt Q9UK32)', 'inhibition', '1.46%'),
  ('COC(=O)c1ccc2c(c1)C(=Cc1cc(Br)c(O)c(Br)c1)C(=O)N2', 'Ribosomal protein S6 kinase alpha-6 (Homo sapiens) (UniProt Q9UK32)', 'inhibition', '2.52%'),
  ('NC(=O)c1cccc(Nc2nccc(Nc3cccc(F)c3)n2)c1', 'Ribosomal protein S6 kinase alpha-6 (Homo sapiens) (UniProt Q9UK32)', 'inhibition', '1.27%'),
  ('ON=C1CCc2cc(-c3nc(C4CCNCC4)[nH]c3-c3ccncc3)ccc21', 'Ribosomal protein S6 kinase alpha-6 (Homo sapiens) (UniProt Q9UK32)', 'inhibition', '0.13%'),
  ('[O-][S+]1CCN(Cc2ccc(-c3ccc4ncnc(Nc5ccc(OCc6ccccc6)c(Cl)c5)c4c3)o2)CC1', 'Ribosomal protein S6 kinase alpha-6 (Homo sapiens) (UniProt Q9UK32)', 'inhibition', '-1.76%'),
  ('Nc1nccc(C#Cc2cncnc2Nc2ccc(OCc3cccc(F)c3)c(Cl)c2)n1', 'Ribosomal protein S6 kinase alpha-6 (Homo sapiens) (UniProt Q9UK32)', 'inhibition', '0.59%'),
  ('NS(=O)(=O)c1ccc(N/N=C2\C(=O)Nc3ccc(Cl)cc32)cc1', 'Ribosomal protein S6 kinase alpha-6 (Homo sapiens) (UniProt Q9UK32)', 'inhibition', '0.98%'),
  ('Cc1nc(-c2ccccc2)n2nc(NCCCN3CCOCC3)ncc12', 'Ribosomal protein S6 kinase alpha-6 (Homo sapiens) (UniProt Q9UK32)', 'inhibition', '2.39%'),
  ('CCS(=O)(=O)c1ccc(OC)c(Nc2ncc(-c3cccc(OC)c3)o2)c1', 'Ribosomal protein S6 kinase alpha-6 (Homo sapiens) (UniProt Q9UK32)', 'inhibition', '-0.11%'),
  ('Cc1cc(-c2ccccn2)cc(C)c1/C=C/c1cncc(-c2nn[nH]n2)c1', 'Ribosomal protein S6 kinase alpha-6 (Homo sapiens) (UniProt Q9UK32)', 'inhibition', '-1.04%'),
  ('NS(=O)(=O)c1ccc(NC=C2C(=O)Nc3ccc4ncsc4c32)cc1', 'Ribosomal protein S6 kinase alpha-6 (Homo sapiens) (UniProt Q9UK32)', 'inhibition', '29.3%'),
  ('COc1ccc(-c2nn3ncccc3c2-c2ccnc(Nc3cccc(C(F)(F)F)c3)n2)cc1', 'Ribosomal protein S6 kinase alpha-6 (Homo sapiens) (UniProt Q9UK32)', 'inhibition', '0.81%'),
  ('CCn1c(-c2nonc2N)nc2ccc(F)cc21', 'Ribosomal protein S6 kinase alpha-6 (Homo sapiens) (UniProt Q9UK32)', 'inhibition', '1.56%'),
  ('CN(C)c1cc2c(Nc3ccc4c(cnn4Cc4ccccc4)c3)ncnc2cn1', 'Ribosomal protein S6 kinase alpha-6 (Homo sapiens) (UniProt Q9UK32)', 'inhibition', '0.97%'),
  ('C[C@@H](Oc1cc(-n2cnc3ccc(OC[C@@H](O)CO)cc32)sc1C(N)=O)c1ccccc1Cl', 'Ribosomal protein S6 kinase alpha-6 (Homo sapiens) (UniProt Q9UK32)', 'inhibition', '-0.4%'),
  ('COc1cc(/C=N/Nc2ncnc3c2cnn3C(C)C)ccc1O', 'Ribosomal protein S6 kinase alpha-6 (Homo sapiens) (UniProt Q9UK32)', 'inhibition', '1.4%'),
  ('N#Cc1c(NC(=O)c2ccccc2F)sc2c1CCCC2', 'Ribosomal protein S6 kinase alpha-6 (Homo sapiens) (UniProt Q9UK32)', 'inhibition', '-0.24%');

Cited source: ChEMBL document CHEMBL1961873
